Can you tell me denaturant m value for the items I'm about to list?
B1: Cyanovirin-N, P81180 (parent)
chain: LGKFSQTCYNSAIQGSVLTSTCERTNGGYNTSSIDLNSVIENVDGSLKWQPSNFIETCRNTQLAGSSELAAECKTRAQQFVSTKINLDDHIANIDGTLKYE

variants of: B1; settings: Nostoc ellipsosporum; pH 6; 25 °C; GdnHCl; CD; sodium phosphate 20 mM; transition: 2; reversible: yes(90%); structure 1IIY; whole UniProt chain shown
Answers are plain numbers, in kcal/mol/M.

Required: denaturant m value, one value per variant below.
1. P51G S11I S20A
2. P51G
3. P51G S11A S20A T61I
4. P51G S11V S20A
5. P51G S11A S20A
6. P51G S11V S20A T61V

[2, 2.5, 1.7, 2.6, 2.4, 1.7]
